Assign Ki to each entry below.
Target: Human recombinant LSD1 protein (Homo sapiens, UniProt O60341)
Test: Inhibition of LSD1 (Amplex Red peroxide/peroxidase-coupled demethylase assay, di-methylated H3-K4 peptide substrate)
Conditions: Ki (IC50) estimated at half of the maximum activity; range class
Where a name gives a salt, the structure may show the parent alone.

[ask] Given the entry N#Cc1cccc(CNc2ccc([C@H]3C[C@@H]3N)cn2)c1 (racemic) [Example 18, hydrochloride] , what Ki was observed with Human recombinant LSD1 protein (Homo sapiens, UniProt O60341)?
[reply] 100 to 1000 nM

[ask] # get_value(readout= Ki, system= Human recombinant LSD1 protein (Homo sapiens, UniProt O60341)) for N[C@H]1C[C@@H]1c1ccc(Nc2ccc(C(F)(F)F)cc2)nc1 (racemic) [Example 3, hydrochloride]
[reply] 100 to 1000 nM

[ask] Give recorded Ki with Human recombinant LSD1 protein (Homo sapiens, UniProt O60341) for the following compound: Cc1cccc(CNc2ccc([C@H]3C[C@@H]3N)cn2)c1 (racemic) [Example 16, hydrochloride]
[reply] 100 to 1000 nM

[ask] State its Ki on Human recombinant LSD1 protein (Homo sapiens, UniProt O60341): N[C@H]1C[C@@H]1c1ccc(NCc2ccc(C(F)(F)F)cc2)nc1 (racemic) [Example 15, hydrochloride]
[reply] 100 to 1000 nM

[ask] Please provide the recorded Ki for Cc1ccc(CNc2ccc([C@H]3C[C@@H]3N)cn2)cc1 (racemic) [Example 17, hydrochloride] , tested on Human recombinant LSD1 protein (Homo sapiens, UniProt O60341).
[reply] 100 to 1000 nM

[ask] Record lookup: for Human recombinant LSD1 protein (Homo sapiens, UniProt O60341), what Ki belongs to NC(=O)c1cccc(Nc2ccc([C@H]3C[C@@H]3N)cn2)c1 (racemic) [Example 10, hydrochloride] ?
[reply] 100 to 1000 nM

[ask] Recorded Ki for N[C@H]1C[C@@H]1c1ccc(Nc2cccc(Cl)c2)nc1 (racemic) [Example 1, hydrochloride] with Human recombinant LSD1 protein (Homo sapiens, UniProt O60341), please?
[reply] 100 to 1000 nM

* * *

Biological target: Human recombinant monoamine oxidase MAO-B (Homo sapiens)
Sequence (P27338 whole entry): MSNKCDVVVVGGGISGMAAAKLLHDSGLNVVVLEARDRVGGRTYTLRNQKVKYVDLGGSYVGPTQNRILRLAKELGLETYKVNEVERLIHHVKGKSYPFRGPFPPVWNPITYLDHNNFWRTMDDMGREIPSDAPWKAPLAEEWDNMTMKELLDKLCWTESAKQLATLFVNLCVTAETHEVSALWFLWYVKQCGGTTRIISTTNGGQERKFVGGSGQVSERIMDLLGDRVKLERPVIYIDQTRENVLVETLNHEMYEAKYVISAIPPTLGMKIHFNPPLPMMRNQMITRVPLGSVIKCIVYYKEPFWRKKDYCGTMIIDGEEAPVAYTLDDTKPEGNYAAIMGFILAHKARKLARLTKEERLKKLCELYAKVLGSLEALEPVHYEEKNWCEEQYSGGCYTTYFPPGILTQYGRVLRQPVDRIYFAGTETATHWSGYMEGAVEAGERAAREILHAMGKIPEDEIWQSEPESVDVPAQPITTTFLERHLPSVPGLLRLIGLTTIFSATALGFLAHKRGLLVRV
Assay: Monoamine oxidase assay, kynuramine fluorescence, MAO-B
Details: Ki (IC50) determined at Vmax/2; range class
pKi: −log10 of the molar value. Structures can show the parent of a compound that is named as a salt.
Could you please report measured pKi for the items listed next?

[ask] Which pKi is listed for Cc1ccc(Nc2ccc([C@H]3C[C@@H]3N)cn2)cc1 (racemic) [Example 6, hydrochloride] ?
[reply] 4.40 to 6.00

[ask] # input molecule: COc1ccc(Nc2ccc([C@H]3C[C@@H]3N)cn2)cc1 (racemic) [Example 5, hydrochloride] ; wanted: its pKi
[reply] 6.00 to 7.00

[ask] // lookup pKi for N[C@H]1C[C@@H]1c1ccc(Nc2ccc(Cl)cc2)nc1 (racemic) [Example 2, hydrochloride]
[reply] 7.00 to 9.00

[ask] Query (molecule): Cc1ccc(CNc2ccc([C@H]3C[C@@H]3N)cn2)cc1 (racemic) [Example 17, hydrochloride] ; field requested: pKi
[reply] 4.40 to 6.00

[ask] What value of pKi has been reported for the following molecule? NC(=O)c1cccc(Nc2ccc([C@H]3C[C@@H]3N)cn2)c1 (racemic) [Example 10, hydrochloride]
[reply] 4.40 to 6.00

[ask] Given Cc1cccc(CNc2ccc([C@H]3C[C@@H]3N)cn2)c1 (racemic) [Example 16, hydrochloride] , state its recorded pKi.
[reply] 4.40 to 6.00

[ask] Record request: pKi value, item N#Cc1cccc(CNc2ccc([C@H]3C[C@@H]3N)cn2)c1 (racemic) [Example 18, hydrochloride]
[reply] 4.40 to 6.00

* * *

Target: Human recombinant monoamine oxidase MAO-A (Homo sapiens, UniProt P21397)
Sequence (P21397 1-527): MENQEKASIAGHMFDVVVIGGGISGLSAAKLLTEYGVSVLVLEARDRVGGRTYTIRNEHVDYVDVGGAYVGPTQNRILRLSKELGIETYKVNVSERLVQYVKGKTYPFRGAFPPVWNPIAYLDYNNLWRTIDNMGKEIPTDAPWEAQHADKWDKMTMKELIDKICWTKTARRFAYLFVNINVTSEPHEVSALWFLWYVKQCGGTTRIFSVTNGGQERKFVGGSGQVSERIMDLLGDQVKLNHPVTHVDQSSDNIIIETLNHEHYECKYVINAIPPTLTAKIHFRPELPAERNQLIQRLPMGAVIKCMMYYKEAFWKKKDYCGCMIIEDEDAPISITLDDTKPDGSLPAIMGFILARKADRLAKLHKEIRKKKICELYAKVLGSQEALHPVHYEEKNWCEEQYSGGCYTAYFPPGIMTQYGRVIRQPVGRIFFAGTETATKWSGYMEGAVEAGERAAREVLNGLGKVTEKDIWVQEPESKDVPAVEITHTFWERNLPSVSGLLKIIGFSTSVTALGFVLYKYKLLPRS
Experiment: Monoamine oxidase assay, kynuramine fluorescence, MAO-A
Conditions: Ki (IC50) determined at Vmax/2; range class
Text: Human recombinant monoamine oxidase proteins MAO-A and MAO-B were purchased from Sigma Aldrich. MAOs catalyze the oxidative deamination of primary, secondary and tertiary amines. In order to monitor MAO enzymatic activities and/or their inhibition rate by inhibitor(s) of interest, a fluorescence-based (inhibitor)-screening assay was set up. 3-(2-Aminophenyl)-3-oxopropanamine (kynuramine dihydrobromide, Sigma Aldrich), a non fluorescent compound was chosen as a substrate. […]
Where a name gives a salt, the structure may show the parent alone.
outcome-measure: Ki

[ask] May I ask what Ki has been recorded for N[C@H]1C[C@@H]1c1ccc(NCc2ccc(C(F)(F)F)cc2)nc1 (racemic) [Example 15, hydrochloride] ?
[reply] 1 to 40 µM

[ask] Name the recorded Ki for N#Cc1cccc(CNc2ccc([C@H]3C[C@@H]3N)cn2)c1 (racemic) [Example 18, hydrochloride] .
[reply] 1 to 40 µM

[ask] Using the record for COc1ccc(Nc2ccc([C@H]3C[C@@H]3N)cn2)cc1 (racemic) [Example 5, hydrochloride] , report its Ki.
[reply] 1 to 40 µM

[ask] Dear colleague, I am looking for the recorded Ki of the following compound: N[C@H]1C[C@@H]1c1ccc(Nc2ccc(Cl)cc2)nc1 (racemic) [Example 2, hydrochloride]
[reply] 1 to 40 µM

[ask] GET /values?readout=Ki&item= COc1cccc(Nc2ccc([C@H]3C[C@@H]3N)cn2)c1 (racemic) [Example 4, hydrochloride]
[reply] 1 to 40 µM

[ask] Please give the measured Ki for this compound: Cc1cccc(CNc2ccc([C@H]3C[C@@H]3N)cn2)c1 (racemic) [Example 16, hydrochloride]
[reply] 1 to 40 µM

[ask] Tell me the measured Ki of N[C@H]1C[C@@H]1c1ccc(NCc2cccc(Cl)c2)nc1 (racemic) [Example 12, hydrochloride] , please.
[reply] 1 to 40 µM

[ask] What does the record list as Ki for Cc1ccc(CNc2ccc([C@H]3C[C@@H]3N)cn2)cc1 (racemic) [Example 17, hydrochloride] ?
[reply] 1 to 40 µM

[ask] # get_value(readout='Ki', item= Cc1cccc(Nc2ccc([C@H]3C[C@@H]3N)cn2)c1 (racemic) [Example 7, hydrochloride] )
[reply] 1 to 40 µM

[ask] Returns the measured Ki for the input compound. Input: N[C@H]1C[C@@H]1c1ccc(Nc2ccc(C(F)(F)F)cc2)nc1 (racemic) [Example 3, hydrochloride]
[reply] 1 to 40 µM

[ask] Quick one: Ki for NC(=O)c1cccc(Nc2ccc([C@H]3C[C@@H]3N)cn2)c1 (racemic) [Example 10, hydrochloride] ?
[reply] 1 to 40 µM

[ask] Recorded Ki of N[C@H]1C[C@@H]1c1ccc(Nc2cccc(Cl)c2)nc1 (racemic) [Example 1, hydrochloride] , please.
[reply] 1 to 40 µM

[ask] Endpoint output: Ki of Cc1ccc(Nc2ccc([C@H]3C[C@@H]3N)cn2)cc1 (racemic) [Example 6, hydrochloride] . Value?
[reply] 1 to 40 µM

[ask] # query: Ki of entry N#Cc1cccc(Nc2ccc([C@H]3C[C@@H]3N)cn2)c1 (racemic) [Example 9, hydrochloride]
[reply] 1 to 40 µM

* * *

Record form. Attribute: Ki. Fill in for each entry.
Biological target: Human recombinant monoamine oxidase MAO-B (Homo sapiens)
Experiment: Monoamine oxidase assay, kynuramine fluorescence, MAO-B
Conditions: Ki (IC50) determined at Vmax/2; range class
Where a name gives a salt, the structure may show the parent alone.

[ask] Short answer please: Ki, Human recombinant monoamine oxidase MAO-B (Homo sapiens), entry N[C@H]1C[C@@H]1c1ccc(Nc2ccc(C(F)(F)F)cc2)nc1 (racemic) [Example 3, hydrochloride]
[reply] 100 to 1000 nM

[ask] Lab note: need Ki for COc1cccc(Nc2ccc([C@H]3C[C@@H]3N)cn2)c1 (racemic) [Example 4, hydrochloride] on Human recombinant monoamine oxidase MAO-B (Homo sapiens), anyone have it?
[reply] 1000 to 40000 nM

[ask] What Ki appears in the records for this compound with Human recombinant monoamine oxidase MAO-B (Homo sapiens)? N[C@H]1C[C@@H]1c1ccc(NCc2cccc(Cl)c2)nc1 (racemic) [Example 12, hydrochloride]
[reply] 1000 to 40000 nM

[ask] Give Ki (Human recombinant monoamine oxidase MAO-B (Homo sapiens)) of the following compound: N[C@H]1C[C@@H]1c1ccc(NCc2ccc(C(F)(F)F)cc2)nc1 (racemic) [Example 15, hydrochloride]
[reply] 1000 to 40000 nM

[ask] Form field: Ki recorded for Cc1cccc(Nc2ccc([C@H]3C[C@@H]3N)cn2)c1 (racemic) [Example 7, hydrochloride] with Human recombinant monoamine oxidase MAO-B (Homo sapiens) (enter value)
[reply] 100 to 1000 nM

[ask] Request - read-out Ki | tested on Human recombinant monoamine oxidase MAO-B (Homo sapiens) | compound N[C@H]1C[C@@H]1c1ccc(Nc2cccc(Cl)c2)nc1 (racemic) [Example 1, hydrochloride]
[reply] 1 to 100 nM

[ask] Give recorded Ki with Human recombinant monoamine oxidase MAO-B (Homo sapiens) for the following compound: N#Cc1cccc(Nc2ccc([C@H]3C[C@@H]3N)cn2)c1 (racemic) [Example 9, hydrochloride]
[reply] 100 to 1000 nM
